- Assay procedure: plasma pharmacokinetics in patients (HPLC–MS/MS, non-compartmental analysis)
- Type: in vivo, human
- Measurement parameters: human, plasma, oral, Dose-level 4: dacomitinib 15 mg QD + PD-0325901 5 mg BID; Cycle 1 Day 1; n = 3; read-out: Cmax PD-0325901, mean (CV%)
Parameter: Cmax (ng/mL)
Write it as a number; the unit ng/mL goes unstated.

Give the measured Cmax for O=C(NOC[C@H](O)CO)c1ccc(F)c(F)c1Nc1ccc(I)cc1F
179

---

- Assay procedure: plasma pharmacokinetics in patients (HPLC–MS/MS, non-compartmental analysis)
- Format: in vivo, human
- Measurement parameters: human, plasma, oral, Dose-level 5: dacomitinib 15 mg QD + PD-0325901 6 mg BID; Cycle 2 Day 1; n = 5; read-out: AUC0-24h dacomitinib, mean (CV%)
Parameter: AUC(0-t) (ng·h/mL)
Write it as a number; the unit ng·h/mL goes unstated.

Give the measured AUC(0-t) for COc1cc2ncnc(Nc3ccc(F)c(Cl)c3)c2cc1NC(=O)/C=C/CN1CCCCC1
747
